For each entry below, report its Solubilités : soluble dans le diméthyl sulfoxyde value.
- procedure summary: Solubility
- Assay type: physicochemical
- stated conditions: in dimethyl sulfoxide (DMSO)
Report the value in % with no unit label.

Request: Tell me measured Solubilités : soluble dans le diméthyl sulfoxyde for CC(C)NCC(O)COCC1CCCCC1 (centres unmarked) [Exemple 4] please.
Result: 18

Request: Return Solubilités : soluble dans le diméthyl sulfoxyde (reported value) for this compound: CC(C)(C)NCC(O)COCC1CC=CCC1 (centres unmarked) [Exemple 8]
Result: 15

Request: # return recorded Solubilités : soluble dans le diméthyl sulfoxyde for entry CC1CCCCC1OCC(O)CNC(C)(C)C (centres unmarked) [Exemple 1]
Result: 15

Request: Kindly indicate its recorded Solubilités : soluble dans le diméthyl sulfoxyde. Item: CC(C)(C)NCC(O)COCC1CCCCC1 (centres unmarked) [Exemple 5]
Result: 10

Request: Please look at this compound and report its Solubilités : soluble dans le diméthyl sulfoxyde: CC(C)(C)NCC(O)COCCC1=CCC2CC1C2(C)C (centres unmarked) [Exemple 6]
Result: 10
